- Assay comment: mitochondrial membrane potential change in A549 cells, profiling panel, cell-based, JC-1 fluorescence, basal, 24 h, 100 nL (AID 1138);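 further: A549 lung adenocarcinoma cells under basal conditions with no added stimulus; test concentration not given here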
- Condition summary: higher = more signal
Measurement name: z-score
Please respond with just the number, no unit label.

Request the reported z-score associated with COC(=O)[C@@]1(Cc2ccc(OC)cc2)[C@H]2c3cc(C(=O)N(C)C)n(CCO)c3C[C@H]2CN1C(=O)c1ccccc1
0.782

Request the reported z-score associated with COc1cc(CO)cc(I)c1O[C@H]1C=C(C(=O)NCCO)C[C@@H](NCc2ccc(F)cc2)[C@@H]1O
1.18

Request the reported z-score associated with O=C1C2C=CC(C(O)c3ccc(Br)cc3)N(Nc3ccccc3F)C2C(=O)N1c1ccccc1 (stereo not given)
0.147

Request the reported z-score associated with C=CC[C@]1(C(=O)O)COC(c2ccc(OCCCO)cc2)=N1
0.0454

Request the reported z-score associated with Cc1ccc(S[C@]2(C(=O)O)CC(=O)N(C3Cc4ccccc4C3)[C@@H]2c2ccc(CO)cc2)cc1
0.225

Request the reported z-score associated with O=C1OCCC/C=C\[C@H]2OC34C=CCN(CCN5CCOCC5)C(=O)[C@H]3N(CCCCCCO)C(=O)[C@@H]4C12 (stereo not given in full)
1.13

Request the reported z-score associated with CC(c1ccccc1)C(O)C1C=CC2C(=O)N(c3ccccc3)C(=O)C2N1Nc1ccc([N+](=O)[O-])cc1 (stereo not given)
-0.915

Request the reported z-score associated with COC(=O)c1ccc([C@H](NC(=O)c2ccco2)[C@]2(C)C[C@H]2C2CCCCC2)cc1
-0.573

Request the reported z-score associated with CC(C)(C)N1CC=CC23O[C@@H]4C=CCOC(=O)[C@@H]4[C@H]2C(=O)N(CCCCCCO)[C@@H]3C1=O (stereo not given in full)
-0.12

Request the reported z-score associated with C=CCOC(=O)[C@H]1[C@@H]2C(=O)O[C@@H](c3ccccc3)[C@@H](c3ccccc3)N2[C@@H](c2ccc(OCCOC(=O)[C@@H]3C[C@@H]4C(=O)N[C@@H](CCCCN(C)C)C(=O)N4[C@@H]3c3ccc(O)cc3)cc2)[C@]12C(=O)Nc1ccccc12
-1.49

Request the reported z-score associated with COC(=O)[C@@]1(Cc2ccc(OC)cc2)[C@H]2c3cc(C(=O)N(C)C)n(Cc4ccc(Cl)c(C(F)(F)F)c4)c3C[C@H]2CN1C(=O)c1ccccc1
0.0187

Request the reported z-score associated with C=CCN1C(=O)[C@@]2(O[C@@H](CCn3cc([C@H](O)c4ccccc4)nn3)[C@H]([Si](C)(C)c3ccc(OC)cc3)[C@H]2C)c2cc(N3CCC3=O)ccc21
2.25

Request the reported z-score associated with Cc1ccccc1C(O)C1C=CC2C(=O)N(C)C(=O)C2N1N(c1ccccc1)c1ccccc1 (stereo not given)
0.429

Request the reported z-score associated with C[C@@H]1ON(c2ccc(C(=O)OC(C)(C)C)cc2)[C@H](c2ccc(O)cc2)[C@H]1C(=O)N1C(=O)OC[C@H]1Cc1ccccc1
-1.49

Request the reported z-score associated with CCOC(=O)c1ccc(NC(=O)O[C@H]2[C@H](OC(=O)Nc3ccc4c(c3)OCO4)[C@H](OC(=O)Nc3ccc4c(c3)OCO4)[C@@H](OC)O[C@@H]2CO)cc1
-0.551

Request the reported z-score associated with O=C1C2C=CC(C(O)c3ccc(F)cc3)N(n3cnnc3)C2C(=O)N1Cc1ccccc1 (stereo not given)
-1.3

Request the reported z-score associated with O=C1N(Cc2ccccc2)c2ccccc2[C@@H]2OC(c3ccc(OCCCO)cc3)=N[C@]12Cc1ccccc1
-1.31

Request the reported z-score associated with CN(C)CCCNC(=O)[C@@H]1c2ccccc2C(=O)N(Cc2ccccc2Cl)[C@H]1c1ccc(CO)cc1
1.53

Request the reported z-score associated with COC(=O)[C@@]1(Cc2ccccc2)[C@H]2c3cc(C(=O)N(C)C)n(Cc4c(CO)[nH]cc(C)c4=O)c3C[C@H]2CN1C(=O)c1ccccc1
0.238

Request the reported z-score associated with O=C(NCC(F)(F)F)[C@@H]1c2ccccc2C(=O)N(Cc2ccc(OC(F)(F)F)cc2)[C@H]1c1ccc(CO)cc1
0.845

Request the reported z-score associated with O=C1NC(=O)C2C1C=CC(C(O)c1cccc3ccccc13)N2Nc1ccc(Cl)cc1Cl (stereo not given)
-1.28

Request the reported z-score associated with Cc1ccc(S[C@]2(C(=O)NCC(F)(F)F)CC(=O)N(Cc3ccccc3)[C@@H]2c2ccc(CO)cc2I)cc1
0.16

Request the reported z-score associated with Cc1ccc(S[C@]2(C(=O)NCCCN(C)C)CC(=O)N(C3CCCCC3)[C@@H]2c2ccc(CO)cc2)cc1
1.28

Request the reported z-score associated with CN1C(=O)C2C=CC(C(O)C#Cc3ccccc3)N(Nc3ccccc3)C2C1=O (stereo not given)
1.11

Request the reported z-score associated with NCCCCCCNC(=O)[C@@H]1C[C@@H]2C(=O)N[C@@H](CCCCN)C(=O)N2[C@@H]1c1cccc(OCCO)c1
0.81

Request the reported z-score associated with COc1ccc([Si](C)(C)[C@@H]2[C@@H](CCO)O[C@]3(C(=O)N(Cc4ccc(N5CCCCC5=O)cc4)c4ccccc43)[C@H]2C)cc1
1.74

Request the reported z-score associated with CN1C(=O)C2C=CC(C(O)c3cccc4ccccc34)N(N3CCCCC3)C2C1=O (stereo not given)
-0.0645

Request the reported z-score associated with CCOC(=O)C[C@H]1[C@H](OC(=O)c2ccc(C(=O)c3ccccc3)cc2)[C@@H](NC(=O)Cc2ccc(OC)cc2)c2cc(OCCCO)ccc2N1C(=O)c1ccccc1
1.14

Request the reported z-score associated with O[C@@H](Cc1ccccc1)[C@@H](/C=C/C1CC1)N(CC#Cc1ccccc1)Cc1cccc(Cl)c1
0.513

Request the reported z-score associated with CCC[C@@H]1C[C@@]1(CCC)[C@@H](NC(=O)OCc1ccccc1)c1ccc(-c2ccccc2)cc1
0.289

* * *

Exercise: state measured composite z-score for each of the compounds provided.
- Assay system: Neurogenic locus notch homolog protein 2 (Homo sapiens)
- Assay comment: Notch2 binders on small-molecule microarrays, primary screen, biochemical, small-molecule microarray, 635 nm fluorescence, stem cell growth factors (AID 1073)
- Condition summary: Notch2 binding, higher = more signal
Please respond with just the number, no unit label.

Please state recorded composite z-score (tested on Neurogenic locus notch homolog protein 2 (Homo sapiens)) of COC(=O)[C@@]1(Cc2ccccc2)[C@H]2c3cc(C(=O)N(C)C)n(CCc4ccc(O)c(OC)c4)c3C[C@H]2CN1C(=O)c1ccccc1
0.749

Please state recorded composite z-score (tested on Neurogenic locus notch homolog protein 2 (Homo sapiens)) of CN1C(=O)C2C=CC(C(O)C#Cc3ccccc3)N(Nc3ccccc3)C2C1=O (centres undefined)
1.7

Please state recorded composite z-score (tested on Neurogenic locus notch homolog protein 2 (Homo sapiens)) of CN(C)c1ccc(C(O)C2C=CC3C(=O)N(c4ccccc4)C(=O)C3N2Nc2ccc([N+](=O)[O-])cc2)cc1 (centres undefined)
1.52

Please state recorded composite z-score (tested on Neurogenic locus notch homolog protein 2 (Homo sapiens)) of COCCOC(=O)N1C(=O)[C@@]2(c3cc(C#Cc4ccc(OC)cc4)ccc31)[C@H](C(=O)Nc1nc3ccccc3s1)[C@H]1C(=O)O[C@H](c3ccccc3)[C@H](c3ccccc3)N1[C@@H]2c1ccc(OCCO)cc1
1.21

* * *

- Assay comment: MM1S cell viability effects, profiling panel, calcein-AM fluorescence, 48 h, basal (AID 1165);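 further: viability of MM1S multiple myeloma cells under basal unstimulated conditions; test concentration not given here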
- Condition summary: higher = more signal
Exercise: state measured z-score for each of the compounds provided.
Please respond with just the number, no unit label.

Request the reported z-score associated with NC(=O)N1C(=O)C2C(C1=O)C1C=C(CCCO)C2C(c2cccs2)N1Cc1cccc(OC(F)(F)F)c1 (centres undefined)
-2.98

Request the reported z-score associated with Cc1cc(C)cc(N2C(=O)CSC2c2cccc([N+](=O)[O-])c2)c1 (centres undefined)
1.22

Request the reported z-score associated with N#Cc1ccc(NN2C(C(O)c3ccc(F)cc3)C=CC3C(=O)N(c4ccccc4)C(=O)C32)cc1 (centres undefined)
-0.453

Request the reported z-score associated with COC(=O)c1c2oc(c1C(=O)OC)C(=O)N(C)Cc1cn(nn1)C[C@H](Cc1ccccc1)NC(=O)N[C@H](CO)CC2
0.273

Request the reported z-score associated with CN(C)C(=O)[C@]1(CCS(=O)(=O)c2ccccc2)N=C(c2ccc(OCCCO)cc2)O[C@@H]1c1ccccc1N=[N+]=[N-]
-0.133

Request the reported z-score associated with COC(=O)[C@@]1(Cc2ccc(F)cc2)[C@H]2c3cc(C(=O)N(C)C)n(CCc4ccc(O)c(OC)c4)c3C[C@H]2CN1C(=O)c1ccccc1
-0.254

Request the reported z-score associated with COCCOC(=O)N1C(=O)[C@@]2(c3ccccc31)[C@H](C(=O)N1CCN(c3ncccn3)CC1)[C@H]1C(=O)O[C@H](c3ccccc3)[C@H](c3ccccc3)N1[C@@H]2c1ccc(O)cc1
-1.41

Request the reported z-score associated with [N-]=[N+]=Nc1ccccc1C[C@]1(C(N)=O)N=C(c2ccc(OCCCO)cc2)O[C@H]1c1ccccc1N=[N+]=[N-]
-2.29

Request the reported z-score associated with C=CCNC(=O)[C@H]1[C@@H]2C(=O)O[C@@H](c3ccccc3)[C@@H](c3ccccc3)N2[C@@H](c2ccc(O)cc2)[C@]12C(=O)Nc1ccc(C#CC3(O)CCCCCC3)cc12
-1.65

Request the reported z-score associated with C=C(CCCC)/C(=C/C[C@@H](OC(=O)c1ccncc1)c1ccccc1OCCO)c1cnc2ccccc2c1
-3.2

Request the reported z-score associated with C=C(/C(=C/C[C@H](OC(C)=O)c1cccc(OCCO)c1)c1cnc2ccccc2c1)C(C)C
-0.861

Request the reported z-score associated with COCCCNC(=O)[C@@]1(Cc2ccccc2N=[N+]=[N-])N=C(c2ccc(OCCCO)cc2)O[C@H]1c1ccccc1
-1.41

Request the reported z-score associated with C=CCC(OC(C)=O)[C@@H]1[C@@H](N(Cc2ccc(-c3cccc(C(F)(F)F)c3)o2)C(=O)c2ccc(C)cc2)c2cc(OCCCO)ccc2N1C(=O)c1ccc2ccccc2c1 (some centres undefined)
0.47

Request the reported z-score associated with Cc1ccc(S[C@]2(C(=O)O)CC(=O)N(Cc3ccccc3Cl)[C@@H]2c2ccc(CO)cc2I)cc1
-2.94

Request the reported z-score associated with CC(=O)c1ccc(C(O)C2C=CC3C(=O)N(c4ccccc4)C(=O)C3N2Nc2ccc(C#N)cc2)cc1 (centres undefined)
-0.262

Request the reported z-score associated with COC(=O)c1ccc([C@H](NC(=O)c2ccco2)[C@]2(C)C[C@H]2C2CCCCC2)cc1
-2.65

Request the reported z-score associated with CCOC(=O)[C@H]1[C@@H]2C(=O)N3CCC[C@H]3[C@H](O[Si](C(C)C)(C(C)C)C(C)C)[C@H]2C=C2CCN(S(=O)(=O)c3ccc(C)cc3)C[C@H]21
-2.91

Request the reported z-score associated with CC(CO)N1C(=O)[C@@H]2[C@H]3C(=O)OCC=C[C@H]3OC23C=CCN(C(C)(C)C)C(=O)[C@@H]13 (some centres undefined)
1.08

Request the reported z-score associated with C=C(/C(=C/C[C@@H](OC(C)=O)c1cccc(OCCO)c1)c1cc(C(=O)OC)ccc1OC)C(C)C
-0.881

Request the reported z-score associated with COc1ccc(C#Cc2ccc3c(c2)[C@]2(C(=O)N3)[C@H](c3ccc(O)cc3)N3[C@H](c4ccccc4)[C@H](c4ccccc4)OC(=O)[C@H]3[C@@H]2C(=O)O)cc1
-2.24

Request the reported z-score associated with COc1cccc(/C=C/C=O)c1
-1.38

Request the reported z-score associated with [N-]=[N+]=NCc1ccccc1C[C@@]1(C(=O)NCc2ccccc2)N=C(c2ccc(OCCCO)cc2)O[C@@H]1c1ccccc1N=[N+]=[N-]
-2.78

Request the reported z-score associated with NC(=O)NCC#Cc1ccc2c(c1)[C@]1(C(=O)N2)[C@H](C(=O)O)[C@H]2C(=O)O[C@H](c3ccccc3)[C@H](c3ccccc3)N2[C@@H]1c1ccc(OCCO)cc1
0.231

Request the reported z-score associated with N#Cc1ccc(C(O)C2C=CC3C(=O)N(c4ccccc4)C(=O)C3N2Nc2ccccc2)cc1 (centres undefined)
0.41

Request the reported z-score associated with COC(=O)c1cn(C[C@@H](Cc2ccccc2)NC(=O)N[C@H](CO)CCc2oc(C(C)=O)c(C(=O)OC)c2C(=O)OC)nn1
0.408

Request the reported z-score associated with COC(=O)C(CC#Cc1ccc2c(c1)[C@]1(C(=O)N2)[C@H](c2ccccc2OCCO)N2[C@H](c3ccccc3)[C@H](c3ccccc3)OC(=O)[C@H]2[C@@H]1C(=O)NC[C@H](O)c1ccccc1)C(=O)OC
-3.38

Request the reported z-score associated with C=C[C@@H](COC(C)=O)N(C(=O)OC(C)(C)C)S(=O)(=O)c1ccc(Br)cc1
0.867

Request the reported z-score associated with COC(=O)CCCCCCC(=O)Nc1ccc(NC(=O)CCCC[P+](c2ccccc2)(c2ccccc2)c2ccccc2)cc1
0.134

Request the reported z-score associated with CC(C)N1C(=O)c2ccccc2[C@@H](C(=O)NC2CC2)[C@@H]1c1ccc(CO)cc1
-0.0123

Cited source for all entries: PubChem BioAssay
